test_protocol: Stability of linkers L1-L4 conjugated to FGF21 (LC-MS)
Format: physicochemical
cond: +4° C., 336 hrs (2 weeks)

[
  {
    "molecule": "L1-FGF21ΔH-A129C: Linker-1 conjugated to FGF21ΔH-A129C protein (Table 4; Table 5 row L1) (conjugate, UniProt Q9NSA1 29-209, looked up, variant H1* A129C, Linker-1 attached) Fibroblast growth factor 21: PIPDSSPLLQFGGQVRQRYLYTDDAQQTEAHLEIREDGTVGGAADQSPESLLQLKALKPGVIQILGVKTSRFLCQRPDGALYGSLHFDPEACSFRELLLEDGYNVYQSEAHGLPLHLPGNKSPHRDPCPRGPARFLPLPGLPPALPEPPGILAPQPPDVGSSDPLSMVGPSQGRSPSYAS",
    "+(2) H2O [%]": 18
  },
  {
    "molecule": "L2-FGF21ΔH-A129C: Linker-2 conjugated to FGF21ΔH-A129C protein (Table 4; Table 5 row L2) (conjugate, UniProt Q9NSA1 29-209, looked up, variant H1* A129C, Linker-2 attached) Fibroblast growth factor 21: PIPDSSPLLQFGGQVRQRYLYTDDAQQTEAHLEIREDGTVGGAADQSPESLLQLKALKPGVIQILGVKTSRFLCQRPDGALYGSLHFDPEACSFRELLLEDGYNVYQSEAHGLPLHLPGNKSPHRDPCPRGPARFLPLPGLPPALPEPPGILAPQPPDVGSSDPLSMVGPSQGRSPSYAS",
    "+(2) H2O [%]": 8
  },
  {
    "molecule": "L3-FGF21ΔH-A129C: Linker-3 conjugated to FGF21ΔH-A129C protein (Table 4; Table 5 row L3) (conjugate, UniProt Q9NSA1 29-209, looked up, variant H1* A129C, Linker-3 attached) Fibroblast growth factor 21: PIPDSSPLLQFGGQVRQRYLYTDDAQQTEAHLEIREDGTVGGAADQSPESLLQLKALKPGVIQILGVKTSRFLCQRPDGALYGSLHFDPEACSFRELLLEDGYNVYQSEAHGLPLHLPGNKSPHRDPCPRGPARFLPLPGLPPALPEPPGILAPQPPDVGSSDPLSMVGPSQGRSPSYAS",
    "+(2) H2O [%]": 8
  }
]
